Biological target: HDM2 (Homo sapiens)
Construct: Thioredoxin (N); made in house; host or cells: E. coli strain BL21(DE3)Rosetta
Experiment: HDM2 FRET assay (inhibition of binding of FITC labeled p53-pocket peptide to HDM2)
Conditions: Table 18; read-out: FRET IC50
Description: Methods: An HDM2 FRET assay was developed to assess the compounds' inhibitory activity towards binding of p53 protein. […] Protein was purified using Ni-affinity chromatography, followed by size exclusion chromatography using Superdex 75 26/60 column. […] The HDM2 assay buffer contained 1x Phosphate Buffered Saline (Invitrogen, Cat#14190), 0.01% BSA (Jackson ImmunoResearch, Cat# 001-000-162), 0.01% Tween-20. […]
Items are presented alongside their recorded IC50.
Output spec: scalar in nM, unitless text.

Recorded results for 2 molecules are shown here.
[
  {
    "molecule": "CC(C)c1ccnc(-c2nc3nc(C(=O)O)nc(N[C@H](C)C4CCC4)c3n2CC2CCC(C)(C)CC2)c1 [Example 18.8]",
    "unit_string": "nM",
    "IC50": 59.5
  },
  {
    "molecule": "CC[C@H]1CC[C@H](Cn2c(-c3cc(C(C)C)ccn3)nc3nc(-c4noc(=O)[nH]4)nc(N[C@H](C)C4CCC4)c32)CC1 [Example 18.20]",
    "unit_string": "nM",
    "IC50": 15.7
  }
]

Now examine the next entry.
Form field: reported IC50 of CC([C@H]1CC[C@H](C)CC1)n1c(N2CCC[C@H]2CF)nc2nc(-c3noc(=O)[nH]3)nc(-c3cncc(Cl)c3)c21 (single isomer, unassigned) [Example 18.45]
2.42

###

Molecular target: HDM2 (Homo sapiens, UniProt Q00987)
Construct: Thioredoxin (N); made in house; host or cells: E. coli strain BL21(DE3)Rosetta
Sequence (Q00987 17-125): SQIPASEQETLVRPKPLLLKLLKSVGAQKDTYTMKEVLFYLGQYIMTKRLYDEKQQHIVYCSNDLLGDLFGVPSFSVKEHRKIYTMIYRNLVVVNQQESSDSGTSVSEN
Test: HDM2 FRET assay (inhibition of binding of FITC labeled p53-pocket peptide to HDM2)
Conditions: 0.5 nM HDM2 (residues 17 to 125), 3nM peptide, two hour incubation at room temperature; read-out: FRET IC50
Property: IC50; scope: individual compounds

The examples below pair each entry with its known result.
[
  {
    "smiles_record": "Cc1cccc(-c2nc3nc(-c4nnn[nH]4)nc(N[C@H](C)C4CC4)c3n2Cc2ccc(C(F)(F)F)cc2)c1",
    "measured_on": "HDM2 (Homo sapiens, UniProt Q00987)",
    "reported_property": "IC50",
    "reported": "53 nM"
  },
  {
    "smiles_record": "CC(C)c1ccnc(-c2nc3nc(-c4nnn[nH]4)nc(N[C@H](C)C4CCC4)c3n2C[C@H]2CC[C@H](C)CC2)c1",
    "measured_on": "HDM2 (Homo sapiens, UniProt Q00987)",
    "reported_property": "IC50",
    "reported": "1.91 nM"
  },
  {
    "smiles_record": "C[C@@H]1[C@@H](C)OCCN1c1nc2nc(-c3n[nH]c(=O)o3)nc(-c3cncc(Cl)c3)c2n1C[C@H]1CC[C@H](C)CC1",
    "measured_on": "HDM2 (Homo sapiens, UniProt Q00987)",
    "reported_property": "IC50",
    "reported": "9.45 nM"
  },
  {
    "smiles_record": "C[C@@H]1COC[C@@H](C)N1c1nc2nc(-c3noc(=O)[nH]3)nc(-c3cccc(Cl)c3)c2n1C[C@H]1CC[C@H](C)CC1",
    "measured_on": "HDM2 (Homo sapiens, UniProt Q00987)",
    "reported_property": "IC50",
    "reported": "2.23 nM"
  },
  {
    "smiles_record": "C[C@H]1CC[C@H](Cn2c(N3CCO[C@H]4CCC[C@@H]43)nc3nc(-c4noc(=O)[nH]4)nc(-c4cncc(Cl)c4)c32)CC1",
    "measured_on": "HDM2 (Homo sapiens, UniProt Q00987)",
    "reported_property": "IC50",
    "reported": "344 nM"
  }
]

Okay, now this compound:
Form field: reported IC50 of `Cc1cccc(-c2nc(-c3noc(=O)[nH]3)nc3nc(N4CCOC[C@H]4c4ccccc4)n(C[C@H]4CC[C@H](C)CC4)c23)c1`
3.96 nM

###

Target: HDM2 (Homo sapiens, UniProt Q00987)
Construct: Thioredoxin (N); made in house; host or cells: E. coli strain BL21(DE3)Rosetta
Experiment: HDM2 FRET assay (inhibition of binding of FITC labeled p53-pocket peptide to HDM2)
Settings: Table 11; read-out: FRET IC50
Field 'label' (enum: condition met / condition not met). Set to condition met when IC50 is strictly under 7 nM; else condition not met.

[
  {
    "compound": "C[C@@H](Nc1nc(-c2noc(=O)[nH]2)nc2nc(N(C)Cc3ccon3)n(C[C@H]3CC[C@H](C)CC3)c12)C1CCC1",
    "measured_on": "HDM2 (Homo sapiens, UniProt Q00987)",
    "assigned_category": "condition met"
  },
  {
    "compound": "C[C@@H](Nc1nc(-c2n[nH]c(=O)o2)nc2nc(N3CCO[C@H]4CCCC[C@H]43)n(C[C@H]3CC[C@H](C)CC3)c12)C1CCC1 (single isomer, unassigned) [Example 11.162]",
    "measured_on": "HDM2 (Homo sapiens, UniProt Q00987)",
    "assigned_category": "condition not met"
  },
  {
    "compound": "C[C@@H](Nc1nc(-c2n[nH]c(=O)o2)nc2nc(N3CCO[C@H](C)[C@@H]3C)n(C[C@H]3CC[C@H](C)CC3)c12)C1CCC1 (single isomer, unassigned) [Example 11.157]",
    "measured_on": "HDM2 (Homo sapiens, UniProt Q00987)",
    "assigned_category": "condition not met"
  },
  {
    "compound": "C[C@@H](Nc1nc(C(=O)O)nc2nc(N3CCCC4CCCCC43)n(C[C@H]3CC[C@H](C)CC3)c12)C1CCC1 (stereo partly drawn) [Example 11.23]",
    "measured_on": "HDM2 (Homo sapiens, UniProt Q00987)",
    "assigned_category": "condition met"
  },
  {
    "compound": "C[C@@H](Nc1nc(-c2noc(=O)[nH]2)nc2nc(N(C)[C@@H]3CCCC[C@@H]3O)n(C[C@H]3CC[C@H](C)CC3)c12)C1CCC1 (stereo in doubt) [Example 11.134]",
    "measured_on": "HDM2 (Homo sapiens, UniProt Q00987)",
    "assigned_category": "condition not met"
  },
  {
    "compound": "COCC1CCCCN1c1nc2nc(-c3noc(=O)[nH]3)nc(N[C@H](C)C3CCC3)c2n1C[C@H]1CC[C@H](C)CC1 (stereo partly drawn)",
    "measured_on": "HDM2 (Homo sapiens, UniProt Q00987)",
    "assigned_category": "condition not met"
  }
]

Could you please tell me whether IC50 recorded for C[C@@H](Nc1nc(-c2noc(=O)[nH]2)nc2nc(N3CCCC3C3CCC3)n(C[C@H]3CC[C@H](C)CC3)c12)C1CCC1 (stereo partly drawn) is less than 7 nM?
condition met

Another compound to check: `C[C@@H](Nc1nc(-c2noc(=O)[nH]2)nc2nc(N3CCOC[C@H]3c3ccccn3)n(C[C@H]3CC[C@H](C)CC3)c12)C1CCC1`
condition met

Subsequent entry: C[C@@H](Nc1nc(-c2noc(=O)[nH]2)nc2nc(N3CCOC4CCCC43)n(C[C@H]3CC[C@H](C)CC3)c12)C1CCC1 (single isomer, unassigned) [Example 11.149]
condition met

###

Target: HDM2 (Homo sapiens)
Construct: Thioredoxin (N); made in house; host or cells: E. coli strain BL21(DE3)Rosetta
Test: FRET assay (HDM2 inhibition; method not described in this part)
Type: binding
Conditions: Table 2
Entries annotated with measured pIC50
Units for pIC50: none; it is -log10 of a concentration expressed in mol/L.

Some solved cases for reference:
[
  {
    "smiles_record": "COc1cccc(-c2nc3nc(C(=O)O)nc(N[C@H](C)C4CCC4)c3n2Cc2ccc(C(F)(F)F)cc2)c1",
    "reported_property": "pIC50",
    "reported": 7.43
  },
  {
    "smiles_record": "C[C@@H](Nc1nc(C(=O)O)nc2nc(-c3cccc(C#N)c3)n(Cc3ccc(C(F)(F)F)cc3)c12)C1CCC1",
    "reported_property": "pIC50",
    "reported": 7.20
  },
  {
    "smiles_record": "C[C@@H](Nc1nc(C(=O)O)nc2nc(-c3ccc(Cl)c(Cl)c3)n(Cc3ccc(C(F)(F)F)cc3)c12)C1CCC1",
    "reported_property": "pIC50",
    "reported": 7.69
  },
  {
    "smiles_record": "CNS(=O)(=O)c1ccc(-c2nc3nc(C(=O)O)nc(N[C@H](C)C4CCC4)c3n2Cc2ccc(C(F)(F)F)cc2)cc1",
    "reported_property": "pIC50",
    "reported": 7.36
  },
  {
    "smiles_record": "COc1cc(-c2nc3nc(C(=O)O)nc(N[C@H](C)C4CC4)c3n2Cc2ccc(C(F)(F)F)cc2)ccn1",
    "reported_property": "pIC50",
    "reported": 6.23
  }
]

Reported pIC50 for `Cc1cccc(C)c1-c1nc2nc(C(=O)O)nc(N[C@H](C)C3CC3)c2n1Cc1ccc(C(F)(F)F)cc1` : what is it?
7.18

Could you do the same for `Cc1cc(C)cc(-c2nc3nc(C(=O)O)nc(N[C@H](C)C4CC4)c3n2Cc2ccc(C(F)(F)F)cc2)c1` , please?
6.92

Same question for `C[C@@H](Nc1nc(C(=O)O)nc2nc(Cc3ccccc3)n(Cc3ccc(C(F)(F)F)cc3)c12)C1CCC1` please.
8.44

Cited source for all entries: patent EP2951180B1
